Measured MFI at 20 nM conc. of individual entries
Molecular target: human PD-1 stably expressed on Jurkat/IL-2 reporter cells (Jurkat/PD-1 cells) (human, UniProt Q15116 25-288)
Sequence (Q15116 25-288): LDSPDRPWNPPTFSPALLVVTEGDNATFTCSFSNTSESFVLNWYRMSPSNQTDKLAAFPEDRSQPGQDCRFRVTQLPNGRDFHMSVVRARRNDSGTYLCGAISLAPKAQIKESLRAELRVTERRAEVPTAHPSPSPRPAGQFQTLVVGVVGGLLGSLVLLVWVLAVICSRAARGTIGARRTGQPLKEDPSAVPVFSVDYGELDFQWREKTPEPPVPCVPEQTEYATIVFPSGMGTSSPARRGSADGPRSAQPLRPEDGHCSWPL
Experiment: flow cytometry, Jurkat/PD-1 cells
Answer format: numeric, MFI implied, no suffix.

// worked examples, MFI at 20 nM conc. included
variant PD-L1 ECD-Fc N45D, R68L, F173L, D197G, P198S (Fc fusion, not shown: a dimerising Fc or GST) FTVTVPKDLYVVEYGSNMTIECKFPVEKQLDLAALIVYWEMEDKDIIQFVHGEEDLKVQHSSYRQRALLLKDQLSLGNAALQITDVKLQDAGVYRCMISYGGADYKRITVKVNAPYNKINQRILVVDPVTSEHELTCQAEGYPKAEVIWTSSDHQVLSGKTTTTNSKREEKLLNVTSTLRINTTTNEIFYCTFRRLGSEENHTAELVIPELPLAHPPNER | 59300
variant PD-L1 ECD-Fc N45D, E134G, L213P (Fc fusion, not shown: a dimerising Fc or GST) FTVTVPKDLYVVEYGSNMTIECKFPVEKQLDLAALIVYWEMEDKDIIQFVHGEEDLKVQHSSYRQRARLLKDQLSLGNAALQITDVKLQDAGVYRCMISYGGADYKRITVKVNAPYNKINQRILVVDPVTSEHGLTCQAEGYPKAEVIWTSSDHQVLSGKTTTTNSKREEKLFNVTSTLRINTTTNEIFYCTFRRLDPEENHTAELVIPELPPAHPPNER | 2260
variant PD-L1 ECD-Fc M41K, D43G, K44E, N45D, R195G, N201D (Fc fusion, not shown: a dimerising Fc or GST) FTVTVPKDLYVVEYGSNMTIECKFPVEKQLDLAALIVYWEKEGEDIIQFVHGEEDLKVQHSSYRQRARLLKDQLSLGNAALQITDVKLQDAGVYRCMISYGGADYKRITVKVNAPYNKINQRILVVDPVTSEHELTCQAEGYPKAEVIWTSSDHQVLSGKTTTTNSKREEKLFNVTSTLRINTTTNEIFYCTFRGLDPEEDHTAELVIPELPLAHPPNER | 145000
variant PD-L1 ECD-Fc N45D, V50A, L124S, K144E, L179P, R195G (Fc fusion, not shown: a dimerising Fc or GST) FTVTVPKDLYVVEYGSNMTIECKFPVEKQLDLAALIVYWEMEDKDIIQFAHGEEDLKVQHSSYRQRARLLKDQLSLGNAALQITDVKLQDAGVYRCMISYGGADYKRITVKVNAPYNKINQRISVVDPVTSEHELTCQAEGYPEAEVIWTSSDHQVLSGKTTTTNSKREEKLFNVTSTPRINTTTNEIFYCTFRGLDPEENHTAELVIPELPLAHPPNER | 18200
variant PD-L1 ECD-Fc N45D, G52V, Q121L, P198S (Fc fusion, not shown: a dimerising Fc or GST) FTVTVPKDLYVVEYGSNMTIECKFPVEKQLDLAALIVYWEMEDKDIIQFVHVEEDLKVQHSSYRQRARLLKDQLSLGNAALQITDVKLQDAGVYRCMISYGGADYKRITVKVNAPYNKINLRILVVDPVTSEHELTCQAEGYPKAEVIWTSSDHQVLSGKTTTTNSKREEKLFNVTSTLRINTTTNEIFYCTFRRLDSEENHTAELVIPELPLAHPPNER | 296
variant PD-L1 ECD-Fc N45D, S99G, C137R, V207A (Fc fusion, not shown: a dimerising Fc or GST) FTVTVPKDLYVVEYGSNMTIECKFPVEKQLDLAALIVYWEMEDKDIIQFVHGEEDLKVQHSSYRQRARLLKDQLSLGNAALQITDVKLQDAGVYRCMIGYGGADYKRITVKVNAPYNKINQRILVVDPVTSEHELTRQAEGYPKAEVIWTSSDHQVLSGKTTTTNSKREEKLFNVTSTLRINTTTNEIFYCTFRRLDPEENHTAELAIPELPLAHPPNER | 834

Q. # input binder: variant PD-L1 ECD-Fc V11E, N45D, T130A, P198T (Fc fusion, not shown: a dimerising Fc or GST) FTVTVPKDLYEVEYGSNMTIECKFPVEKQLDLAALIVYWEMEDKDIIQFVHGEEDLKVQHSSYRQRARLLKDQLSLGNAALQITDVKLQDAGVYRCMISYGGADYKRITVKVNAPYNKINQRILVVDPVASEHELTCQAEGYPKAEVIWTSSDHQVLSGKTTTTNSKREEKLFNVTSTLRINTTTNEIFYCTFRRLDTEENHTAELVIPELPLAHPPNER ; wanted: its MFI at 20 nM conc.
A. 137000

Q. Given the entry variant PD-L1 ECD-Fc N45D, S131F, P198S (Fc fusion, not shown: a dimerising Fc or GST) FTVTVPKDLYVVEYGSNMTIECKFPVEKQLDLAALIVYWEMEDKDIIQFVHGEEDLKVQHSSYRQRARLLKDQLSLGNAALQITDVKLQDAGVYRCMISYGGADYKRITVKVNAPYNKINQRILVVDPVTFEHELTCQAEGYPKAEVIWTSSDHQVLSGKTTTTNSKREEKLFNVTSTLRINTTTNEIFYCTFRRLDSEENHTAELVIPELPLAHPPNER , report its measured MFI at 20 nM conc..
A. 116000

Q. Requested read-out: MFI at 20 nM conc.. Entry: variant PD-L1 ECD-Fc N45D, T163I, K167R, R195G (Fc fusion, not shown: a dimerising Fc or GST) FTVTVPKDLYVVEYGSNMTIECKFPVEKQLDLAALIVYWEMEDKDIIQFVHGEEDLKVQHSSYRQRARLLKDQLSLGNAALQITDVKLQDAGVYRCMISYGGADYKRITVKVNAPYNKINQRILVVDPVTSEHELTCQAEGYPKAEVIWTSSDHQVLSGKTTITNSRREEKLFNVTSTLRINTTTNEIFYCTFRGLDPEENHTAELVIPELPLAHPPNER
A. 134000

Q. Could you tell me which MFI at 20 nM conc. is on file for variant PD-L1 ECD-Fc N45D, I148V, R195G, N201D (Fc fusion, not shown: a dimerising Fc or GST) FTVTVPKDLYVVEYGSNMTIECKFPVEKQLDLAALIVYWEMEDKDIIQFVHGEEDLKVQHSSYRQRARLLKDQLSLGNAALQITDVKLQDAGVYRCMISYGGADYKRITVKVNAPYNKINQRILVVDPVTSEHELTCQAEGYPKAEVVWTSSDHQVLSGKTTTTNSKREEKLFNVTSTLRINTTTNEIFYCTFRGLDPEEDHTAELVIPELPLAHPPNER ?
A. 131000
